B1: KCNA1 (parent)
chain: LKASMRELGLLIFFLFIGVILFSS

# Variants of: B1
# Assay summary: protein stability index of a GFP-peptide fusion (GPS, HEK-293T) (PSI 1-6); higher = more stable;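 note: lentivirally expressed fusions sorted by FACS into six bins by GFP to DsRed ratio, PSI derived from sequencing read proportions per bin multiplied by bin number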
# Experimental parameters: c terminus: a fixed tail appended

[
  {
    "Mutation": "L15T",
    "protein stability index": 3.59
  },
  {
    "Mutation": "E7M",
    "protein stability index": 1.95
  },
  {
    "Mutation": "L21W",
    "protein stability index": 2.35
  },
  {
    "Mutation": "V19D",
    "protein stability index": 2.65
  },
  {
    "Mutation": "L8R",
    "protein stability index": 2.8
  },
  {
    "Mutation": "L8H",
    "protein stability index": 2.1
  },
  {
    "Mutation": "L10K",
    "protein stability index": 4
  },
  {
    "Mutation": "R6A",
    "protein stability index": 3.59
  },
  {
    "Mutation": "L8C",
    "protein stability index": 2.28
  },
  {
    "Mutation": "R6M",
    "protein stability index": 3.15
  },
  {
    "Mutation": "A3P",
    "protein stability index": 2.17
  },
  {
    "Mutation": "R6N",
    "protein stability index": 2.85
  },
  {
    "Mutation": "L8Y",
    "protein stability index": 2.58
  },
  {
    "Mutation": "V19N",
    "protein stability index": 2.33
  },
  {
    "Mutation": "I12G",
    "protein stability index": 3.16
  },
  {
    "Mutation": "F13D",
    "protein stability index": 3.37
  },
  {
    "Mutation": "V19P",
    "protein stability index": 2.51
  },
  {
    "Mutation": "G9C",
    "protein stability index": 1.29
  },
  {
    "Mutation": "F13M",
    "protein stability index": 1.32
  },
  {
    "Mutation": "E7C",
    "protein stability index": 1.65
  },
  {
    "Mutation": "I17T",
    "protein stability index": 2.48
  },
  {
    "Mutation": "F14V",
    "protein stability index": 2.82
  },
  {
    "Mutation": "G9K",
    "protein stability index": 3
  },
  {
    "Mutation": "G9I",
    "protein stability index": 2.18
  },
  {
    "Mutation": "F13I",
    "protein stability index": 1.77
  },
  {
    "Mutation": "R6S",
    "protein stability index": 2.88
  },
  {
    "Mutation": "M5F",
    "protein stability index": 1.98
  },
  {
    "Mutation": "S24V",
    "protein stability index": 1.85
  },
  {
    "Mutation": "F14D",
    "protein stability index": 2.93
  },
  {
    "Mutation": "L10C",
    "protein stability index": 2.07
  },
  {
    "Mutation": "G9F",
    "protein stability index": 2.07
  },
  {
    "Mutation": "S4P",
    "protein stability index": 3.03
  },
  {
    "Mutation": "G18D",
    "protein stability index": 1.87
  },
  {
    "Mutation": "R6I",
    "protein stability index": 3.16
  },
  {
    "Mutation": "A3K",
    "protein stability index": 2.16
  },
  {
    "Mutation": "F13G",
    "protein stability index": 2.98
  },
  {
    "Mutation": "E7R",
    "protein stability index": 2.07
  },
  {
    "Mutation": "A3W",
    "protein stability index": 2.14
  },
  {
    "Mutation": "L11I",
    "protein stability index": 2.49
  },
  {
    "Mutation": "F13H",
    "protein stability index": 3.07
  },
  {
    "Mutation": "S23K",
    "protein stability index": 3.15
  },
  {
    "Mutation": "S23F",
    "protein stability index": 2.15
  },
  {
    "Mutation": "G9M",
    "protein stability index": 2.37
  },
  {
    "Mutation": "F16D",
    "protein stability index": 1.64
  },
  {
    "Mutation": "M5I",
    "protein stability index": 2.19
  },
  {
    "Mutation": "F13V",
    "protein stability index": 1.63
  },
  {
    "Mutation": "I17V",
    "protein stability index": 2.74
  },
  {
    "Mutation": "S23Y",
    "protein stability index": 2.2
  },
  {
    "Mutation": "S24T",
    "protein stability index": 2
  },
  {
    "Mutation": "I20S",
    "protein stability index": 2.1
  },
  {
    "Mutation": "L8F",
    "protein stability index": 2.39
  },
  {
    "Mutation": "F14C",
    "protein stability index": 1.95
  },
  {
    "Mutation": "L1E",
    "protein stability index": 1.93
  },
  {
    "Mutation": "G9A",
    "protein stability index": 1.75
  },
  {
    "Mutation": "V19A",
    "protein stability index": 2.58
  },
  {
    "Mutation": "I20Y",
    "protein stability index": 2.65
  },
  {
    "Mutation": "G18F",
    "protein stability index": 3.9
  },
  {
    "Mutation": "F22G",
    "protein stability index": 1.81
  },
  {
    "Mutation": "F14N",
    "protein stability index": 2.85
  },
  {
    "Mutation": "E7W",
    "protein stability index": 1.42
  },
  {
    "Mutation": "F16Y",
    "protein stability index": 3.35
  },
  {
    "Mutation": "L11K",
    "protein stability index": 3.54
  },
  {
    "Mutation": "F14E",
    "protein stability index": 2.74
  },
  {
    "Mutation": "L15K",
    "protein stability index": 2.54
  },
  {
    "Mutation": "L8G",
    "protein stability index": 1.65
  },
  {
    "Mutation": "F16R",
    "protein stability index": 1.32
  },
  {
    "Mutation": "I12Y",
    "protein stability index": 3.01
  },
  {
    "Mutation": "L8S",
    "protein stability index": 2.08
  },
  {
    "Mutation": "L1V",
    "protein stability index": 1.88
  },
  {
    "Mutation": "G9L",
    "protein stability index": 1.83
  },
  {
    "Mutation": "M5Q",
    "protein stability index": 3.33
  },
  {
    "Mutation": "G18K",
    "protein stability index": 2.44
  },
  {
    "Mutation": "L15I",
    "protein stability index": 1.55
  },
  {
    "Mutation": "K2L",
    "protein stability index": 1.81
  },
  {
    "Mutation": "L1D",
    "protein stability index": 3.09
  },
  {
    "Mutation": "L15M",
    "protein stability index": 1.7
  },
  {
    "Mutation": "L15H",
    "protein stability index": 2.11
  },
  {
    "Mutation": "L15F",
    "protein stability index": 1.79
  },
  {
    "Mutation": "S4F",
    "protein stability index": 2.15
  },
  {
    "Mutation": "A3N",
    "protein stability index": 1.86
  },
  {
    "Mutation": "S24N",
    "protein stability index": 2.83
  },
  {
    "Mutation": "E7H",
    "protein stability index": 2.29
  },
  {
    "Mutation": "L1M",
    "protein stability index": 2.27
  },
  {
    "Mutation": "M5S",
    "protein stability index": 2.33
  },
  {
    "Mutation": "I17P",
    "protein stability index": 2.77
  },
  {
    "Mutation": "F16K",
    "protein stability index": 2.35
  },
  {
    "Mutation": "I12F",
    "protein stability index": 2.38
  },
  {
    "Mutation": "S4G",
    "protein stability index": 1.91
  },
  {
    "Mutation": "F22H",
    "protein stability index": 3.76
  },
  {
    "Mutation": "I20L",
    "protein stability index": 1.96
  },
  {
    "Mutation": "I20A",
    "protein stability index": 3.3
  }
]
